Assay: Metabolic stability in human serum assessed as compound remaining at 200 uM after 48 hrs by RP-HPLC analysis
Type: ADME, cell-free
Conditions: read-out: Stability
Quantity Measured: remaining at 48 h, 200 µM (%)

CC[C@H](C)[C@H]1NC(=O)C[C@H](Cc2cccc(CN)c2)NC(=O)[C@@H]2CCCN2C(=O)[C@@H](NC(C)=O)CNC(=O)/C=C/[C@H](Cc2ccc(O)cc2)NC1=O	95
CC[C@H](C)[C@H]1NC(=O)C[C@H](Cc2cccc(CN)c2)NC(=O)[C@@H]2CCCN2C(=O)[C@@H](NC(=O)CCCCCN)CNC(=O)/C=C/[C@H](Cc2ccc(O)cc2)NC1=O	81

Each recorded value in this set is attributed to ChEMBL document CHEMBL1926661.
